tested on: S. aureus ATCC 25923 biofilms; experiment: Anti-biofilm viability assay with redox dye, pre- and post-exposure, S. aureus ATCC 25923 biofilms; type: cell-based, Staphylococcus aureus; settings: measured 24 hours after adding to existing biofilms; S. aureus ATCC 25923; read-out: Potency, IC50 Post-biofilm formation
measurement_type: IC50

Quick check: IC50 of CC(C)c1ccc2c(c1)CC[C@H]1[C@](C)(C(=O)N[C@H](Cc3c[nH]c4ccccc34)C(=O)O)CCC[C@]21C ?
86.1 µM

* * *

Give measured MIC for each item. Keep answers brief.
system: single-cell bacteria; assay: Antibacterial activity (MIC) against single-cell (planktonic) bacteria; type: cell-based; settings: Staphylococcus aureus, in the absence of biofilms, strain not stated
// units = µg/mL; emit number, no label

Field: MIC (single-cell bacteria). Entry: CC(C)c1ccc2c(c1)C(=O)C[C@H]1[C@](C)(C(=O)N[C@@H](CC3CCCCC3)C(=O)O)CCC[C@]21C
46.8

Field: MIC (single-cell bacteria). Entry: CC(C)c1ccc2c(c1)CC[C@H]1[C@](C)(C(=O)N[C@@H](CC3CCCCC3)C(=O)O)CCC[C@]21C
6.8

Field: MIC (single-cell bacteria). Entry: CC(C)C[C@H](NC(=O)[C@]1(C)CCC[C@]2(C)c3ccc(C(C)C)cc3CC[C@@H]12)C(=O)O
33.1

Field: MIC (single-cell bacteria). Entry: CC(C)c1ccc2c(c1)CC[C@H]1[C@](C)(C(=O)N[C@H](Cc3ccccc3)C(=O)O)CCC[C@]21C
31.3

Field: MIC (single-cell bacteria). Entry: CC(C)c1ccc2c(c1)CC[C@H]1[C@](C)(C(=O)N[C@H](Cc3c[nH]c4ccccc34)C(=O)O)CCC[C@]21C
29.3

Field: MIC (single-cell bacteria). Entry: CC(C)c1ccc2c(c1)CC[C@H]1[C@](C)(C(=O)N[C@@H](Cc3ccccc3)C(=O)O)CCC[C@]21C
22.4

Where do these numbers come from? They come from patent US20170247409A1.
